Dear all, I have gathered published IC50 values for Cytochrome P450 3A4 (Homo sapiens, UniProt P08684); the list follows.
Readout kind: IC50

INSERT INTO assay_data (compound, tested_system, experimental_value) VALUES
  ('C[C@H]1CN(c2cc(F)c(OCCO)c(Cl)c2)[C@H]2CCCC[C@H]2N1', 'Cytochrome P450 3A4 (Homo sapiens, UniProt P08684)', '> 100 µM'),
  ('C#Cc1ccc2c3c([nH]c2c1)[C@@H](c1c(F)cc(N[C@H]2CCN(CCCF)C2)cc1F)N(CC(F)(F)F)[C@H](C)C3', 'Cytochrome P450 3A4 (Homo sapiens, UniProt P08684)', '> 12.7 µM'),
  ('Cn1cc2c(n1)c(=O)n(-c1cccc3[nH]ncc13)c1cc(Cl)ccc21', 'Cytochrome P450 3A4 (Homo sapiens, UniProt P08684)', '> 10 µM'),
  ('CN1[C@H]2CCCC[C@@H]2N(c2ccc(OC(F)(F)CO)cc2)CC1(C)C', 'Cytochrome P450 3A4 (Homo sapiens, UniProt P08684)', '86.7 µM'),
  ('CC(C)(O)c1ccc(-c2cnc(C(C)(C)O)c(N)c2)cc1N', 'Cytochrome P450 3A4 (Homo sapiens, UniProt P08684)', '> 50 µM'),
  ('Cc1ncccc1-n1c(=O)c2nn(C)cc2c2ccc(C(F)(F)F)nc21 (single isomer, unassigned)', 'Cytochrome P450 3A4 (Homo sapiens, UniProt P08684)', '> 10 µM'),
  ('CC1(C)CN(c2ccc(OCCO)c(Cl)c2)[C@H]2CCCC[C@@H]2N1', 'Cytochrome P450 3A4 (Homo sapiens, UniProt P08684)', '> 100 µM'),
  ('CC1(C)CN(c2cc(F)c(OCCO)c(F)c2)[C@@H]2CCCC[C@H]2N1', 'Cytochrome P450 3A4 (Homo sapiens, UniProt P08684)', '> 100 µM'),
  ('Cn1cc2c(n1)c(=O)n(-c1cccnc1)c1cc(Cl)ccc21', 'Cytochrome P450 3A4 (Homo sapiens, UniProt P08684)', '> 10 µM'),
  ('Cc1cc(N2CC(C)(C)N[C@H]3CCCC[C@@H]32)ccc1OC(F)(F)CO', 'Cytochrome P450 3A4 (Homo sapiens, UniProt P08684)', '62.5 µM'),
  ('Cn1cc2c(n1)c(=O)n(-c1cccc3[nH]ncc13)c1nc(C(F)(F)F)ccc21', 'Cytochrome P450 3A4 (Homo sapiens, UniProt P08684)', '> 30 µM'),
  ('C[C@@H]1Cc2c([nH]c3ccc(F)cc23)[C@@H](c2c(F)cc(N[C@H]3CCN(CCCF)C3)cc2F)N1CC(F)(F)F', 'Cytochrome P450 3A4 (Homo sapiens, UniProt P08684)', '15.7 µM'),
  ('C[C@@H]1CN(c2cc(F)c(OCCO)c(Cl)c2)[C@H]2CCCC[C@@H]2N1', 'Cytochrome P450 3A4 (Homo sapiens, UniProt P08684)', '> 100 µM');
